Data origin, for the record: patent US20240228458A1

- Tested on: Ba/F3 cells expressing L858R/T790M/C797S (EGFR-LTC)
- Assay Remarks: Growth inhibition (GI50) of Ba/F3 cells expressing L858R/T790M/C797S (EGFR-LTC), Celltiter glo
- Format: cell-based
- Condition Notes: Mus musculus, BaF3, 72 h
For each of the molecules below, state its GI50.

Inquiry: Suppose we examine the molecule CC(=O)Nc1ccc(Cl)cc1Nc1nc(Nc2ccc(N3CCC(N4CCN(C)CC4)CC3)c(F)c2)ncc1Cl [Example 67] ; what GI50 value has been reported?
Reply text: 25 to 100 nM

Inquiry: Would you mind doing COc1nc(N2CCC(O)CC2)ccc1Nc1ncc(Cl)c(Nc2ccc(F)cc2NS(C)(=O)=O)n1 [Example 21] as well?
Reply text: 500 to 2000 nM

Inquiry: // next record COc1cc(N2CCC(N3CCN(C)CC3)CC2)c(C)cc1Nc1ncc(Cl)c(Nc2cc3c(cc2N(C)S(C)(=O)=O)CCO3)n1 [Example 248]
Reply text: 1 to 25 nM

Inquiry: And for CN1CCN(C2CCN(c3nc(Cl)c(Nc4ncc(Br)c(Nc5ccc(F)cc5NS(C)(=O)=O)n4)cc3C(F)(F)F)CC2)CC1 [Example 34] ?
Reply text: 100 to 500 nM

Inquiry: Would you mind doing COc1cc(N(C)CCCN2CCN(C)CC2)c(C)cc1Nc1ncc(Cl)c(Nc2cc(Cl)c(Cl)cc2NS(C)(=O)=O)n1 [Example 105] as well?
Reply text: > 10000 nM

Inquiry: Subsequent entry: COc1ccc(NS(C)(=O)=O)c(Nc2nc(Nc3cc(C)c(N4CCC(N5CCCC(N(C)C)C5)CC4)cc3OC)ncc2Cl)c1 (stereo not shown) [Example 232]
Reply text: 100 to 500 nM

Inquiry: What about COc1nc(N2CCC(N3CCN(C)CC3)CC2)ccc1Nc1ncc(Cl)c(Nc2ccc3nccnc3c2P(C)(C)=O)n1 [Example 123] ?
Reply text: 100 to 500 nM

====

- Tested on: Ba/F3 cells expressing L858R/T790M/C797S (EGFR-LTC)
- Assay Remarks: Growth inhibition (GI50) of Ba/F3 cells expressing L858R/T790M/C797S (EGFR-LTC), Celltiter glo
- Format: cell-based
- Condition Notes: Mus musculus, BaF3, 72 h
Exercise: state measured GI50 for each of the molecules provided.

Inquiry: For the molecule shown here, COc1cc(N2CCC(N3CCN(C)CC3)CC2)c(F)cc1Nc1ncc(Br)c(Nc2cc3c(cc2N(C)S(C)(=O)=O)CCO3)n1 [Example 256] , give the reported GI50.
Reply text: 100 to 500 nM

Inquiry: Do the same for COc1cc(N2CCC(N3CCN(C)CC3)CC2)c(C)cc1Nc1ncc(Br)c(Nc2cc3c(cc2NS(C)(=O)=O)CCO3)n1 [Example 169] please
Reply text: 1 to 25 nM

Inquiry: Likewise for COc1cc(N2CCC(N3CCN(C)CC3)CC2)c(C)cc1Nc1ncc(Cl)c(Nc2cc(Cl)ccc2-c2c[nH]nn2)n1 [Example 166] ?
Reply text: 1 to 25 nM

====

- System: Ba/F3 cells expressing L858R/T790M/C797S (EGFR-LTC)
- Assay Remarks: Growth inhibition (GI50) of Ba/F3 cells expressing L858R/T790M/C797S (EGFR-LTC), Celltiter glo
- Format: cell-based
- Condition Notes: Mus musculus, BaF3, 72 h
Give GI50 for every item shown.

Inquiry: # query: GI50 of entry COc1cc(N2CCC(N3CCN(C)CC3)CC2)c(Br)cc1Nc1ncc(Cl)c(Nc2cc3c(cc2NS(C)(=O)=O)CCO3)n1 [Example 270]
Reply text: 1 to 25 nM

Inquiry: Same question, COc1cc(N2CCC(N3CCN(C)CC3)CC2)ccc1Nc1ncc(Cl)c(Nc2cc(Cl)ccc2NS(C)(=O)=O)n1 [Example 82] this time
Reply text: 100 to 500 nM

Inquiry: And the next one, COc1nc(N2CCC(N3CCN(C)CC3)CC2)c(C)cc1Nc1ncc(Cl)c(Nc2ccc3nccnc3c2NS(C)(=O)=O)n1 [Example 134] ?
Reply text: 25 to 100 nM

Inquiry: Another molecule to look at: COc1cc(N2CCC(N3CCN(C)CC3)CC2)c(C)cc1Nc1ncc(Cl)c(N(C)c2cc(Cl)c(Cl)cc2N(C)C(C)=O)n1 [Example 78]
Reply text: 2000 to 10000 nM

Inquiry: Please give the result for COc1cc(N2CCC(N3CCN(C)CC3)CC2)c(Cl)cc1Nc1ncc(Cl)c(Nc2cc(Cl)c(Cl)cc2NS(C)(=O)=O)n1 [Example 103] too.
Reply text: 25 to 100 nM

Inquiry: Repeat for the following molecule: COc1nc(N2CCC(C)(C)CC2)ccc1Nc1ncc(Br)c(Nc2ccc(F)cc2NS(C)(=O)=O)n1 [Example 32]
Reply text: 2000 to 10000 nM

Inquiry: Note, next up: COc1cc(N2CCC(N3CCC(C(F)(F)F)CC3)CC2)c(C)cc1Nc1ncc(Br)c(Nc2ccc(F)cc2NS(C)(=O)=O)n1 [Example 148]
Reply text: 100 to 500 nM

====

- Test system: Ba/F3 cells expressing L858R/T790M/C797S (EGFR-LTC)
- Assay Remarks: Growth inhibition (GI50) of Ba/F3 cells expressing L858R/T790M/C797S (EGFR-LTC), Celltiter glo
- Format: cell-based
- Condition Notes: Mus musculus, BaF3, 72 h
Measurement Type: GI50

Inquiry: For the compound "COc1cc(N2CCC(N3CCC(C(F)(F)F)CC3)CC2)c(C)cc1Nc1ncc(Br)c(Nc2cc3c(cc2NS(C)(=O)=O)CCO3)n1" , what GI50 is on record?
Reply text: 1 to 25 nM

Inquiry: Ok, now "COc1cc(N2CCC(N3CCN(C4CC4)CC3)CC2)c(C)cc1Nc1ncc(Br)c(Nc2cc3c(cc2N(C)S(C)(=O)=O)CCO3)n1"
Reply text: 25 to 100 nM

Inquiry: Same lookup for COc1cc(N2CCC(N3CCCC(N(C)C)C3)CC2)c(C)cc1Nc1ncc(Br)c(Nc2cc(Cl)ccc2NS(C)(=O)=O)n1 (stereo not shown) , please.
Reply text: 1 to 25 nM

Inquiry: Please do the same for "COc1nc(N2CCC(N3CCOCC3)CC2)ccc1Nc1ncc(Cl)c(Nc2ccc3ncccc3c2NS(C)(=O)=O)n1" as well.
Reply text: 500 to 2000 nM

Inquiry: "CNS(=O)(=O)c1ccccc1Nc1nc(Nc2ccc(N3CCN(CCO)CC3)nc2OC)ncc1Cl" ?
Reply text: 500 to 2000 nM

Inquiry: Repeat with "CN1CCN(C2CCN(c3ccc4cc(Nc5ncc(Br)c(Nc6ccc(F)cc6NS(C)(=O)=O)n5)ccc4n3)CC2)CC1"
Reply text: 25 to 100 nM

Inquiry: Record: "Cc1cc(Nc2ncc(Cl)c(Nc3cc(Cl)ccc3NS(C)(=O)=O)n2)c(Cl)cc1N1CCC(N2CCN(C)CC2)CC1"
Reply text: 1 to 25 nM
